Measured IC50 on DNA polymerase beta (Homo sapiens, UniProt P06746) follows.
measured-attribute: IC50 (µM)

# example entries with known answers
Fill in IC50 for record `CCCCCCCCCCCCCCCCC1=C[C@H](C(=O)NCCc2ccccc2)[C@H]2C(=O)C(C(=O)OC)=C(CCCCCCCCCCCCCCCC)[C@H]2[C@H]1C(=O)OC` 8.7

State its IC50: `CCCCCCCCCCCCC1=C[C@H](C(=O)O)[C@H]2C(=O)C(C(=O)OC)=C(CCCCCCCCCCCC)[C@H]2[C@H]1C(=O)OC` 2.3

Retrieve IC50 measured for `CCCCCCCCCCCCCCCCC1=C[C@H](C(=O)OCC)[C@H]2C(=O)C(C(=O)OC)=C(CCCCCCCCCCCCCCCC)[C@H]2[C@@H]1C(=O)OC` and print it. 2.4

Specify measured IC50 for `CCCCCCCCCCCCCCCC[C@]1(O)C=C[C@H](O)[C@H]1C(=O)OC` . 179

A. CCCCCCCCCCCCCCCCC1=C[C@H](C(=O)O)[C@H]2C(=O)C(C(=O)OC)=C(CCCCCCCCCCCCCCCC)[C@H]2[C@H]1C(=O)OC
B. CCCCCCCCCCCCCCCC[C@]1(O)C=CC(=O)[C@H]1C(=O)OC
Of A and B , which carries the smaller reported IC50 figure? // respond with label for picked entry A
(A: 3.2 µM, B: 57 µM)

P. CCCCCCCCCCCCCCCCC1=C[C@H](C(=O)O)[C@H]2C(=O)C(C(=O)OC(C)C)=C(CCCCCCCCCCCCCCCC)[C@H]2[C@H]1C(=O)OC(C)C
Q. CCCCCCCCCCCCC(=O)/C=C1\[C@H](O)[C@@H](C(=O)OC)[C@H](c2ccccc2)N1CCc1c[nH]c2ccccc12
R. CCCCCCCCCCCCCCCCC1=C[C@H](C(=O)OCC)[C@H]2C(=O)C(C(=O)OC)=C(CCCCCCCCCCCCCCCC)[C@H]2[C@H]1C(=O)OC
With regard to IC50, arrange the entries in ascending order, please. Order the labels as requested and give them as your answer. R, P, Q

----------
target: DNA polymerase alpha catalytic subunit (Homo sapiens); test: Inhibition of DNA polymerase alpha
Sequence (P09884 whole entry): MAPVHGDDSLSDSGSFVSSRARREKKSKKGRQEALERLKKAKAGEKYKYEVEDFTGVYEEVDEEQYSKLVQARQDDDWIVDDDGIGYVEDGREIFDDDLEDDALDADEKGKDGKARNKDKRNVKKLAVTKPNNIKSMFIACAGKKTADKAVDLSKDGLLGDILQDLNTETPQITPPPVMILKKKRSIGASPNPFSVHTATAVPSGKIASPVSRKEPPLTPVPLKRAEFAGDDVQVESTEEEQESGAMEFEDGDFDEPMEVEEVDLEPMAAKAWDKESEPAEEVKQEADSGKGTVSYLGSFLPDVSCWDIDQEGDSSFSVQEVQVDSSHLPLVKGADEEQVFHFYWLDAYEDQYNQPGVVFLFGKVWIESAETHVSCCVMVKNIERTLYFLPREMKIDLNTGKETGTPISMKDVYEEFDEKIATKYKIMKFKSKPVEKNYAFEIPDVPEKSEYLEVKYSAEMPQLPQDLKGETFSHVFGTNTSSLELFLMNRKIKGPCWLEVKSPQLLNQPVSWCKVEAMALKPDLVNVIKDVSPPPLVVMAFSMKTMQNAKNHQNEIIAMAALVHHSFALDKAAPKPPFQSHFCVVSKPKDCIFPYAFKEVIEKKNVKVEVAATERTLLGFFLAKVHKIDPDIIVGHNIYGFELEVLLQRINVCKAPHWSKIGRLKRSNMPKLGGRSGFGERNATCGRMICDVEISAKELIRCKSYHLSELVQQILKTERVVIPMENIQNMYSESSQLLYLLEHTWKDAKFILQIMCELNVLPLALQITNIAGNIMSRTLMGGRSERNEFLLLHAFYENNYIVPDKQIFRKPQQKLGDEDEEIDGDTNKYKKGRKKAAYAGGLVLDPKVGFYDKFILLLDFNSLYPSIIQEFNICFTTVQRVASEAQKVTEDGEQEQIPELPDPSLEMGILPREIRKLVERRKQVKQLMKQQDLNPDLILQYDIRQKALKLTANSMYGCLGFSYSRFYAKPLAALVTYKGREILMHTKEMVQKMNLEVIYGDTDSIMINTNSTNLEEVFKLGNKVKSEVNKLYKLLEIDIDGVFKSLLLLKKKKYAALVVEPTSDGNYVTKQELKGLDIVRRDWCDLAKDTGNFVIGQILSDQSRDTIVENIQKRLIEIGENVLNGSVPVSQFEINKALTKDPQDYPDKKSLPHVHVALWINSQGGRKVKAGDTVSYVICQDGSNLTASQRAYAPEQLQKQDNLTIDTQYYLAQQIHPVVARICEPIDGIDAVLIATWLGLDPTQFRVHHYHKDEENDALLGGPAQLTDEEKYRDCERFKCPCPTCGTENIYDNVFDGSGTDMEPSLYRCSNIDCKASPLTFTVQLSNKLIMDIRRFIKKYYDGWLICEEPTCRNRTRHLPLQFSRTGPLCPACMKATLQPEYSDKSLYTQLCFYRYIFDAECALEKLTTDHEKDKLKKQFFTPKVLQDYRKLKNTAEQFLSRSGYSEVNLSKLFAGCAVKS
measured-attribute: IC50 (µM)

Example results:
Specify IC50 for `CCCCCCCCCCCCCCCCC1=C[C@H](C(=O)OCC)[C@H]2C(=O)C(C(=O)OC)=C(CCCCCCCCCCCCCCCC)[C@H]2[C@H]1C(=O)OC` and stop. 2.3

Specify measured IC50 for `CCCCCCCCCCCCC(=O)/C=C1\[C@H](O)[C@@H](C(=O)OC)[C@H](CC)N1Cc1ccccc1` . 19.9

P. CCCCCCCCCCCCCCCCC1=C[C@H](C(=O)OCC)[C@H]2C(=O)C(C(=O)OC)=C(CCCCCCCCCCCCCCCC)[C@H]2[C@@H]1C(=O)OC
Q. CCCCCCCCCCCCC(=O)/C=C1\[C@H](O)[C@@H](C(=O)OC)[C@H](CC)N1CCc1ccccc1
Larger number for IC50: P , or Q ? Your answer should be the label of the entry you select. Q
(Q: 25 µM, P: 3.5 µM)

----------
biological target: UniProtKB P04053
pIC50: −log10 of the molar value.
measured-attribute: pIC50

Retrieve pIC50 on UniProtKB P04053; query `CCCCCCCCCCCCCCCCC1=C[C@H](C(=O)OCC)[C@H]2C(=O)C(C(=O)OC)=C(CCCCCCCCCCCCCCCC)[C@H]2[C@H]1C(=O)OC` 4.40

A. CCCCCCCCCCCCCCCCC1=C[C@H](C(=O)O)[C@H]2C(=O)C(C(=O)OC)=C(CCCCCCCCCCCCCCCC)[C@H]2[C@H]1C(=O)OC
B. CCCCCCCCCCCCC1=C[C@H](C(=O)O)[C@H]2C(=O)C(C(=O)OC)=C(CCCCCCCCCCCC)[C@H]2[C@H]1C(=O)OC
Quick one: lower pIC50, A or B ? Select an item and report its label. B

----------
biological target: DNA polymerase alpha catalytic subunit (Homo sapiens); test: Inhibition of DNA polymerase alpha
measured-attribute: IC50 (µM)

Identify measured IC50 associated with `CCCCCCCCCCCCCCCC[C@]1(O)C=CC(=O)[C@H]1C(=O)OC` 4.3

A. CCCCCCCCCCCCC1=C[C@H](C(=O)O)[C@H]2C(=O)C(C(=O)OC)=C(CCCCCCCCCCCC)[C@H]2[C@H]1C(=O)OC
B. CCCCCCCCCCCCCCCCC(=O)/C=C/C(=O)CC(=O)OC
Problem: Given the entries A and B , determine which has the lower reported IC50. Answer format: the label of the selected item. A
(A: 1.9 µM, B: 3.7 µM)

----------
Form field: IC50 (one value per entry).
target: DNA nucleotidylexotransferase (Homo sapiens)
Sequence (P04053 whole entry): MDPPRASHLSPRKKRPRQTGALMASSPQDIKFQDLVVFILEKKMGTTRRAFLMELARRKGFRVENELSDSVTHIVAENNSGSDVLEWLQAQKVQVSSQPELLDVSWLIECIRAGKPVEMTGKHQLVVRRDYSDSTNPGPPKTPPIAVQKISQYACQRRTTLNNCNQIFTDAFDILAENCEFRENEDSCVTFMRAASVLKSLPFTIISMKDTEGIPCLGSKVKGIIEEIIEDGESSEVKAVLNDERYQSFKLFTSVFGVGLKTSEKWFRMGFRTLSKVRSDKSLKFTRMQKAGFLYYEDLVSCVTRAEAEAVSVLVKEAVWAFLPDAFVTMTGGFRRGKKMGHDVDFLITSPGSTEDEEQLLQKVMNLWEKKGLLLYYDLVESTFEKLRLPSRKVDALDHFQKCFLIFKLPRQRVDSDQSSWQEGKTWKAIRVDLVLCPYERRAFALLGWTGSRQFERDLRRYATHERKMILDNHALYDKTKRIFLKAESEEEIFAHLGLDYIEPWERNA

Solved entries (count: 3):
Answer briefly: IC50 recorded on DNA nucleotidylexotransferase (Homo sapiens) for `CCCCCCCCCCCCC(=O)/C=C1\[C@H](O)[C@@H](C(=O)OC)[C@H](c2ccccc2)N1CCc1c[nH]c2ccccc12` > 50 µM

Find IC50 for `CCCCCCCCCCCCC(=O)/C=C1\[C@H](O)[C@@H](C(=O)OC)[C@H](CC)N1Cc1ccccc1` on DNA nucleotidylexotransferase (Homo sapiens) and write it down. > 50 µM

Would you please give the reported IC50 of `CCCCCCCCCCCCC(=O)/C=C1\[C@H](O)[C@@H](C(=O)OC)[C@H](CC)N1CCc1ccccc1` with DNA nucleotidylexotransferase (Homo sapiens)? > 50 µM

# input for lookup
Write down measured IC50 (DNA nucleotidylexotransferase (Homo sapiens)) for this compound. `CCCCCCCCCCCCCCCCC1=C[C@H](C(=O)OC)[C@H]2C(=O)[C@]3(C(=O)OC)C[C@]3(CCCCCCCCCCCCCCCC)[C@H]2[C@H]1C(=O)OC` > 12.5 µM
